Source listed as PubChem BioAssay (NCI).

# Lookup of reported TGI keyed by entry
Test system: HCT-15 colon
test: NCI tumour cell line growth inhibition, 48 h

These recorded examples may help you get a feel for the data.
INSERT INTO assay_data (record_smiles, value_observed) VALUES
  ('S=P(N1CCCC1)(N1CC1)N1CC1', '> 100 µM'),
  ('COC(=O)c1ccc(C(=O)OC)c2nc3cc(C)ccc3nc12', '> 100 µM'),
  ('CC(=O)NC(=O)NC1=NCCC(=O)N1CCc1c[nH]c2ccccc12', '> 100 µM'),
  ('O=P(O)(O)C=C=C1CCCCC1', '> 100 µM'),
  ('NC(=S)NNC(=S)NC(=O)c1ccco1', '> 10 µM');

Now turn to the next compound.
Which TGI is reported for this compound? `COC(=O)[C@H]1[C@H]2C[C@@H]3c4[nH]c5cc(OC)ccc5c4CCN3C[C@H]2C[C@@H](OC(=O)/C=C/c2cc(OC)c(OC)c(OC)c2)[C@@H]1OC`
> 100 µM

====

# key: entry, value: TGI
Tested on: SK-MEL-2 melanoma
test: NCI tumour cell line growth inhibition, 48 h

// below: answered molecules
INSERT INTO assay_data (molecule, value_observed) VALUES
  ('CCOC(=O)c1c(N)sc2c1C(C(=O)OCC)CCC2 (stereo not given)', '> 100 µM'),
  ('C/C(=N/NC(=S)N1CCN(C(=S)N/N=C(/C)c2ccccn2)CC1)c1ccccn1', '> 100 µM'),
  ('COC(=O)[C@](C)(Cc1ccccc1)NC(=O)[C@@H](C)N1[C@@H](c2ccccc2)COC1(C)C', '> 100 µM'),
  ('O=P(O)(O)C=C=C1CCCCC1', '> 100 µM');

Now look at this entry.
Look up TGI for this molecule: COc1ccc(N2C(=O)C3c4[nH]c5ccccc5c4C4CCCCCCC4C3C2=O)cc1 (stereo not given)
> 69.8 µM

====

molecules and their reported TGI
Tested on: SF-295 CNS
test: NCI tumour cell line growth inhibition, 48 h

Observe how each entry below is paired with its result.
INSERT INTO assay_data (molecule, property_label, value_observed) VALUES
  ('COC(=O)[C@](C)(Cc1ccccc1)NC(=O)[C@@H](C)N1[C@@H](c2ccccc2)COC1(C)C', 'TGI', '> 100 µM'),
  ('O=c1oc2cccnc2n1CCCCN1CCN(c2ccccc2)CC1', 'TGI', '> 100 µM'),
  ('COC(=O)[C@@H]1C=C[C@H](NC(C)=O)C1', 'TGI', '> 100 µM'),
  ('COc1cc2ncnc3c2cc1OCCCCCN(C)Cc1ccc(Br)cc1N3', 'TGI', '> 100 µM'),
  ('CC1=CC[C@](C)(O)[C@@]2(C)CC[C@H]3C(=C(C)C)C(=O)C[C@]3(C)C[C@H]12', 'TGI', '> 50 µM'),
  ('COc1cc2c3c(c1OC)C1(C=CC(=O)C=C1)CC3NCC2 (stereo unspecified)', 'TGI', '> 100 µM'),
  ('Cc1ccc2sc3ccc(N)cc3c(=O)c2c1', 'TGI', '> 100 µM'),
  ('O=C1c2ccccc2C(=O)c2nn(N=P(CP(=Nn3nc4c(n3)C(=O)c3ccccc3C4=O)(c3ccccc3)c3ccccc3)(c3ccccc3)c3ccccc3)nc21', 'TGI', '> 100 µM');

// query TGI value for entry `O=[N+]([O-])c1ccc2nc(/C=C(\O)c3ccc(Cl)cc3)c(/C=C(\O)c3ccc(Cl)cc3)nc2c1`
> 100 µM

Follow-up item: `C[C@]12CCC(=O)C=C1CC[C@@H]1[C@@H]2[C@@H](O)C[C@@]2(C)[C@H]1CC[C@]2(O)C(=O)COC(=O)CCC1CCCC1`
> 100 µM

Another molecule to look at: `Nc1cc2[nH]cnc2c(=O)[nH]1`
> 300 µM
